System: H1299
TEST_DESCRIPTION: 72-h MTT cytotoxicity assay, H1299
Assay type: cell-based
CONDITION_SET: Homo sapiens, NCI-H1299; H1299; Example 9; read-out: anti-proliferative IC50 concentration determined for each cell line
METRIC: IC50
Returns: string containing the numeric result and its unit.

Q: Look up and report measured IC50 for this entry: O=[N+]([O-])c1cc(S(=O)(=O)Nc2ccc(Cl)cc2)sc1Cl
Ans: 5 µM

###

ASSAYED_TARGET: HDM2 (Homo sapiens, UniProt Q00987)
Construct: Recombinant HDM2 (1.5 μg per well) in TBS-BSA buffer
Sequence (Q00987 whole entry): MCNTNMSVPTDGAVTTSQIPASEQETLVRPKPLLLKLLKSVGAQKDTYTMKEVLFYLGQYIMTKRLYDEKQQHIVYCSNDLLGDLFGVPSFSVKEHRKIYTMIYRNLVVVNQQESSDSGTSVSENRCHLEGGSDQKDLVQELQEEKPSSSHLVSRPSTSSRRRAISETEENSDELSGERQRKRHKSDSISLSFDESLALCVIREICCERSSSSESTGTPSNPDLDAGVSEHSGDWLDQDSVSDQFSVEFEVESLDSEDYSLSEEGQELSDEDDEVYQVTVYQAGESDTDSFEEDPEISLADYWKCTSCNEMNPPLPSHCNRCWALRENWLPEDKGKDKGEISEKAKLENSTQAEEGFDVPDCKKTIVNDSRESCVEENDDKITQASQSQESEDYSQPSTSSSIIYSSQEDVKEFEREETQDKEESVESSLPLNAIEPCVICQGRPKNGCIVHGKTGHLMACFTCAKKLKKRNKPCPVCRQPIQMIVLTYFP
TEST_DESCRIPTION: Fluorescence polarisation competitive HDM2 binding assay
CONDITION_SET: fluorescence polarisation format; Table 1; read-out: IC50 In vitro competitive HDM2 binding assay
In plain terms, low IC50, meaning strictly below 200 µM, gives Yes, and everything else gives No.

A selection of reference data follows.
MOLECULE	ASSAYED_TARGET	DISCRETE_LABEL
CC(=O)N1CCN(c2cc(S(=O)(=O)Nc3cc(C(F)(F)F)cc(C(F)(F)F)c3)ccc2[N+](=O)[O-])CC1	HDM2 (Homo sapiens, UniProt Q00987)	No
O=S(=O)(Nc1ccc(Cl)c(Cl)c1)c1cc(Br)c(Br)s1	HDM2 (Homo sapiens, UniProt Q00987)	Yes
O=[N+]([O-])c1cc(S(=O)(=O)NCc2ccccc2)sc1Cl	HDM2 (Homo sapiens, UniProt Q00987)	Yes
O=[N+]([O-])c1cccc(S(=O)(=O)Nc2ccc(C(F)(F)F)cc2)c1 [Compound 100]	HDM2 (Homo sapiens, UniProt Q00987)	No
O=S(=O)(Nc1cc(C(F)(F)F)cc(C(F)(F)F)c1)c1ccc2nsnc2c1	HDM2 (Homo sapiens, UniProt Q00987)	Yes

Q: Threshold test, IC50 < 200 µM: O=S(=O)(Nc1ccc(Cl)cc1)c1ccc(Br)s1
Ans: No

Q: Threshold test, IC50 < 200 µM: O=S(=O)(Nc1cc(Cl)cc(Cl)c1)c1cc(Cl)c(O)c(Cl)c1
Ans: No

Q: Threshold test, IC50 < 200 µM: Cc1ccc(NS(=O)(=O)c2cc([N+](=O)[O-])c(Cl)s2)cc1
Ans: Yes

###

ASSAYED_TARGET: HDM2 (Homo sapiens, UniProt Q00987)
Construct: Recombinant HDM2 (1.5 μg per well) in TBS-BSA buffer
TEST_DESCRIPTION: Fluorescence polarisation competitive HDM2 binding assay
CONDITION_SET: fluorescence polarisation format; Table 1; read-out: IC50 In vitro competitive HDM2 binding assay
pIC50: −log10 of the molar value.
Decide by pIC50: equal to or exceeding 4 means Y, less means N.

COc1ccc(N(Cc2ccccc2)S(=O)(=O)c2cc([N+](=O)[O-])c(Cl)s2)cc1 Y

Q: Test whether the compound O=S(=O)(Nc1ccc(C(F)(F)F)cc1)c1ccc(-c2ncco2)cc1 records pIC50 of 4 or higher.
Ans: N

Q: Test whether the compound O=S(=O)(Nc1ccc(C(F)(F)F)cc1)c1cc(Br)c(Cl)s1 records pIC50 of 4 or higher.
Ans: N

Q: Test whether the compound O=S(=O)(Nc1cc(C(F)(F)F)cc(C(F)(F)F)c1)c1cnc(Cl)c(Br)c1 records pIC50 of 4 or higher.
Ans: N

Q: Test whether the compound O=[N+]([O-])c1ccc(NS(=O)(=O)c2cc(C(F)(F)F)cc(C(F)(F)F)c2)cc1Cl records pIC50 of 4 or higher.
Ans: N

Q: Test whether the compound O=[N+]([O-])c1cc(S(=O)(=O)NCCc2c[nH]c3ccccc23)sc1Cl records pIC50 of 4 or higher.
Ans: Y

Q: Test whether the compound O=[N+]([O-])c1cccc(S(=O)(=O)Nc2cc(C(F)(F)F)cc(C(F)(F)F)c2)c1 records pIC50 of 4 or higher.
Ans: N
